src = ChEMBL document CHEMBL1201862

# Tested on: M14
# experimental-protocol: NCI tumour cell line growth inhibition, 48 h
Calls of active or inactive are those of the source. Rule as the data show it: active = GI50 up to about 1.1 µM and inactive = higher.
Assign GI50 to each entry below.

Known GI50 results, listed for orientation:
O=S(=O)(O)c1cc(/N=[N+](\[O-])c2cc(S(=O)(=O)O)c3ccccc3c2)cc2ccccc12 : 35.7 µM (inactive)
CC(CC(=O)N1C2CC3CCC2(CS1(=O)=O)C3(C)C)[Si](C)(C)C (stereo not given) : > 100 µM (inactive)
CCOC(=O)C1=CN(C(=O)c2ccccc2)CCC1Cc1ccccc1 (stereo not given) : 18.6 µM (inactive)

For every item in the list below, what is its measured GI50?
1. CN(C)CCCn1cnc2ncccc2c1=O
2. CC(=O)N[C@@H](Cc1ccc(O)cn1)C(=O)NC1CCCCC1
3. C=C1c2nc3ccccc3n2C=C(c2ccc(OC)cc2)N1c1ccc(OCCN2CCCCC2)cc1
4. O=C(NCCCCCCNCc1cccc2ccccc12)Nc1cccc2ccccc12
5. N#Cc1c(O)c(/C=N/c2ccc(Cl)cc2)c(=O)n2c1[nH]c1ccccc12
6. CC(Oc1ccc(OCC2CCCCC2)cc1)C(N)=O (stereo not given)

["> 100 µM (inactive)", "> 100 µM (inactive)", "14.2 µM (inactive)", "34.3 µM (inactive)", "> 100 µM (inactive)", "> 100 µM (inactive)"]

Quick one: give me GI50 for each item below, same order please.
1. CC(=O)Oc1ccc(N2C(=O)C3c4[nH]c5ccccc5c4C4CCC(C(C)(C)C)CC4C3C2=O)cc1 (stereo not given)
2. N#CC(C(=O)C(=O)Nc1ccc(Cl)cc1)c1ccccc1 (stereo not given)
3. O=C(O)c1ccc(NNC(=O)c2cccc3c(=O)c4ccccc4[nH]c23)cc1
4. CN(C)c1cccc2c1C(=O)C=CC21c2ccc(N(C)C)c3c(N(C)C)ccc(c23)C(c2ccccc2)C1c1ccccc1 (stereo not given)
5. N#Cc1nc(C2=C(Cl)c3ccccc3OC2)[nH]c1C#N
6. COC(=O)c1nc(N)nc(C(=O)OC)c1C(=O)c1ccccc1

4.01 µM (inactive)
> 100 µM (inactive)
> 100 µM (inactive)
16.7 µM (inactive)
19.4 µM (inactive)
> 100 µM (inactive)

====

# Tested on: RPMI-8226
# experimental-protocol: NCI tumour cell line growth inhibition, 48 h
Active and inactive are the calls of the source. Rule as the data show it: active = GI50 up to about 1.1 µM and inactive = higher.
Provide the recorded GI50 for the entries that follow.

CCN(CC)CCC(=O)/C=C/c1ccc(Cl)c(Cl)c1 : 0.127 µM (active)
COc1ccc(-c2oc3cc(O)c(OC)c(O)c3c(=O)c2OC2OC(CO)C(O)C(O)C2O)cc1 (centres undefined) : 21.2 µM (inactive)
C=C1c2nc3ccccc3n2C=C(c2ccc(OC)cc2)N1c1ccc(OCCN2CCCCC2)cc1 : 2.9 µM (inactive)

Consider the record given below.
Indicate its recorded GI50; the molecule in question is "O=C1C(NCCc2ccc(O)c([N+](=O)[O-])c2)=CC(=O)c2[nH]cnc21" 32.7 µM (inactive)

====

I'd appreciate it if you could supply GI50 values for the items below.
# Tested on: A498
# experimental-protocol: NCI tumour cell line growth inhibition, 48 h
Active and inactive are the calls of the source. Cut-off read from the data, not from the text of the source: active = GI50 up to about 1.1 µM and inactive = higher. Non-standard residues stand in square brackets, D forms with d. Residues, ends and D or L forms follow the SMILES beside them.

CS/C(c1ccccc1)=[N+](/C)[O-] : > 100 µM (inactive)
CC(C)C[C@H](NC(=O)[C@H](CC(C)C)NC(=O)[C@@H](Cc1c[nH]c2ccccc12)NC(=O)[C@H](Cc1ccccc1)NC(=O)[C@@H](Cc1c[nH]c2ccccc12)NC(=O)[C@H](CCC(N)=O)NC(=O)[C@H](CCC(N)=O)NC(=O)[C@H]1CCCN1C(=O)[C@@H](N)CCCCN)C(N)=O (H-K[dP]QQ[dW]F[dW]LL-NH2) : > 100 µM (inactive)
COc1ccc2c(c1)CC[C@@H]1C2CC[C@](C)(C#N)C1CC#N (stereo partly specified) : > 100 µM (inactive)

Hi, could you look up GI50 for each item in my list?
1. CC(=O)O[C@H]1CC[C@@]2(C)C(=CC[C@H]3[C@@H]4C/C(=C\c5ccncc5)[C@H](OC(C)=O)[C@@]4(C)CC[C@@H]32)C1
2. COc1ccc(C(C)NNC(=O)c2ccncc2)cc1F (stereo unspecified)
3. CCN(CC)C(=S)SS(=O)(=O)c1cccc(N)c1

1. 12.9 µM (inactive)
2. > 100 µM (inactive)
3. > 100 µM (inactive)

====

I'd appreciate it if you could supply GI50 values for the items below.
# Tested on: SK-MEL-28
# experimental-protocol: NCI tumour cell line growth inhibition, 48 h
The source made the active and inactive calls. Cut-off read from the data, not from the text of the source: active = GI50 up to about 1.1 µM and inactive = higher.

Give me GI50 for each of these compounds, listed below.
1. Cc1nc(=O)n2c(C)n[nH]c2c1C(=O)O
2. O=C(c1ccccc1)c1c(C(F)(F)F)[n+]([O-])c2cc(Cl)c(Cl)cc2[n+]1[O-]
3. O=C(CSc1nc2ccc(I)cc2c(=O)n1Cc1ccccc1)NNC(=S)Nc1ccccc1

1: > 100 µM (inactive); 2: 2.86 µM (inactive); 3: > 100 µM (inactive)

====

# Tested on: SR
# experimental-protocol: NCI tumour cell line growth inhibition, 48 h
Active and inactive are the calls of the source. Cut-off read from the data, not from the text of the source: active = GI50 up to about 1.1 µM and inactive = higher.
Please respond with reported GI50 for every item in the list.

Known results for compounds:
C/C(=C/CO[Si](C)(C)C(C)(C)C)C(=O)N(C)c1ccccc1I : 11.6 µM (inactive)
CC(=O)N/C=C/c1cc(O)ccc1O : 22 µM (inactive)
COC(=O)c1ccc2c(c1)CC1(C2)Cc2ccc3c(c2C1)CCC3 (stereo unspecified) : 20.8 µM (inactive)
O=C(Cc1nc2ccccc2o1)C(=O)Nc1cccc(Cl)c1 : > 100 µM (inactive)
O=C(Nc1cccc(C(F)(F)F)c1)c1cc(-c2ccccc2)nc(S)n1 : > 100 µM (inactive)
C=C1c2nc3ccccc3n2C=C(c2ccc(Cl)cc2)N1c1ccc(OCCN2CCCCC2)cc1 : > 45 µM (inactive)

Fill in GI50 for each of the 4 compounds listed.
1. CC1C(=O)O[B-]2(c3ccccc3)Oc3ccccc3C=[N+]12 (stereo unspecified)
2. CN(C)CCCNC(=O)c1cn2c(ccc3sc4ccccc4c(=O)c32)n1
3. c1ccc(C2OC3(CCC[C@H]4C[C@H]43)O[C@H]2c2ccccc2)cc1 (stereo partly specified)
4. O=C1C(c2ccc([N+](=O)[O-])cc2)=C(Cl)C(=O)c2c(O)cccc21

1. > 100 µM (inactive)
2. 1.95 µM (inactive)
3. 27.2 µM (inactive)
4. > 100 µM (inactive)

Supply recorded GI50 for "COC(=O)c1nc(N)nc(C(=O)OC)c1C(=O)c1ccccc1" here. > 100 µM (inactive)

====

Please respond with reported GI50 for every item in the list.
# System: SN12C
# experimental-protocol: NCI tumour cell line growth inhibition, 48 h
Active and inactive are the calls of the source. Rule as the data show it: active = GI50 up to about 1.1 µM and inactive = higher.

Previously resolved entries follow.
CC1=C(C)CC2(CCCCC2=O)[S+]([O-])C1 (configuration not stated) : > 100 µM (inactive)
CC(=O)OCC1OC(n2cc([N+](=O)[O-])c(=O)[nH]c2=O)C(OC(C)=O)C(OC(C)=O)C1OC(C)=O (configuration not stated) : > 100 µM (inactive)
COc1ccc(CC2COc3cc(OC)cc(OC)c3C2=O)cc1 (configuration not stated) : 38.9 µM (inactive)
C[N+](C)(C)C.FC(F)(F)C1(C(F)(F)F)O[SiH-]2(OC(C(F)(F)F)(C(F)(F)F)c3ccccc32)c2ccccc21 : 18.1 µM (inactive)
CN(C)CCn1c(=O)c2ccc3c4c(nn3CCN(C)C)c3cc(N)ccc3n(c1=O)c24 : < 0.0199 µM (active)

Give me GI50 for each of these compounds, listed below.
1. CCOC(=O)Cn1c2ccccc2c(=O)c2cc(C)c(C)c(C#N)c21
2. N[C@@H]1C[C@H](N)c2c(Cl)sc(Cl)c21

1: > 100 µM (inactive); 2: > 100 µM (inactive)

====

# Tested on: HCT-15
# experimental-protocol: NCI tumour cell line growth inhibition, 48 h
Assign GI50 to each entry below.

Look over these answered cases.
CCOC(=O)c1c(N)n(-c2ccccc2)c(=S)n(-c2ccccc2)c1=O : > 100 µM
NC(=O)/C=C/NC(=O)/C=N\O : > 100 µM
COC(=O)C1=Cc2cc3c(cc2[C@H](c2ccc4c(c2)OCO4)C1C(=O)OC)OCO3 (stereo partly drawn) : > 100 µM
Cc1ccsc1/C=N/Nc1nncc2ccccc12 : > 100 µM
N#C/C(C(=O)Nc1ccc(Cl)cc1)=C(/N)N1CCCC1 : > 100 µM
Cc1nc(=O)n2c(C)n[nH]c2c1C(=O)O : > 100 µM
Cc1cc(C)nc(NC(=S)Nc2ccc(Cl)cc2)c1 : > 100 µM
CCOC(=O)C1=C(N)N(c2ccccc2)/C(=C(/C#N)c2nc3ccccc3[nH]2)S1 : > 100 µM
O=C1CC(=O)NC(NNS(=O)(=O)c2ccc(Cl)cc2)=N1 : > 100 µM
CC(=O)OCC1OC(On2ccccc2=S)C(OC(C)=O)C(OC(C)=O)C1OC(C)=O (stereo not drawn) : > 100 µM

For every record below, what is its GI50?
1. CS(=O)(=O)N1CC(CCl)c2ccc(NCCN)cc21 (stereo not drawn)
2. CC1(C)CCC2(C(=O)OC3OC(CO)C(O)C(O)C3O)CCC3(CO)C(=CCC4C5(C)CC(O)C(O)C(C)(C(=O)OC6OC(CO)C(O)C(O)C6O)C5CCC43C)C2C1 (stereo not drawn)
3. COC1CCC(=O)N1CN(C(C)=O)c1ccc(C)cc1 (stereo not drawn)

1: > 100 µM; 2: > 100 µM; 3: > 100 µM
